Listed here: items and their measured IC50.
molecular target: Prostacyclin Receptors (IP Receptors) of Human Thrombocyte Membranes (Homo sapiens); construct: Thrombocyte membranes are obtained by centrifuging 50 ml of human blood; tissue Maco Pharma, Langen (buffy coats); experiment: Binding to prostacyclin receptors (IP receptors) of human thrombocyte membranes, 3H-Iloprost displacement; details: 3 nM 3H-Iloprost, 60 min, room temperature
Sequence (P43119 whole entry): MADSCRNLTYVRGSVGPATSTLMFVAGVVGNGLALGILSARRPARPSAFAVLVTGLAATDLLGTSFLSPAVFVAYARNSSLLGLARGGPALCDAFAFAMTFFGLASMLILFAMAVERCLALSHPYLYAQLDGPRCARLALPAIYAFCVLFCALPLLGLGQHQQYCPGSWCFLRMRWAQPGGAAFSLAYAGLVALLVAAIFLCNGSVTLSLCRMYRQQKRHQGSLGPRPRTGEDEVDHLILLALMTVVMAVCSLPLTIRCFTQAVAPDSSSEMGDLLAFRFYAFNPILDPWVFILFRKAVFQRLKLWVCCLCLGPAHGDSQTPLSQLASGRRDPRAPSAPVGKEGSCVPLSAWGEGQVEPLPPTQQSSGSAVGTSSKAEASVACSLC
quantity-kind: IC50

[[record]]
smiles_notation = "COc1ccc(-c2c(-c3ccccc3)cn3ncnc(NCCCCCC(=O)O)c23)cc1"
result = "636 nM"

[[record]]
smiles_notation = "COc1ccc(-c2c(-c3ccccc3)cn3ncnc(O[C@H](C)CCCCC(=O)O)c23)cc1"
result = "224 nM"

